efficacy listing for selected molecules.
- Tested on: Leptosphaeria nodorum
- protocol summary: Leptosphaeria nodorum test (wheat) / protective
- Assay type: in vivo
- experimental conditions: 500 ppm active compound, protective spray, evaluated 7-9 days after inoculation

Worked set:
CC(C)Cn1cc(-c2ccnc(N)n2)c(-c2ccc(Cl)s2)n1 [Example 95]: 80%
Cn1cc(-c2ccnc(NC(=O)C3CC3)c2)c(-c2ccc(Cl)s2)n1 [Example 279]: 70%
CCn1cc(-c2ccnc(NC(=O)C(C)C)c2)c(-c2ccc(Cl)s2)n1 [Example 285]: 80%
CCC(=O)Nc1cc(-c2cn(C(C)CC)nc2-c2ccc(Cl)s2)ccn1 (stereo not drawn) [Example 225]: 70%
CC(C)n1cc(-c2ccnc(NC(=O)C3CCC3)c2)c(-c2ccc(Cl)s2)n1 [Example 243]: 90%
CC(C)C(=O)Nc1cc(-c2cn(C)nc2-c2ccc(Cl)s2)ccn1 [Example 288]: 70%
CCn1cc(-c2ccnc(NC(=O)C3CCC3)c2)c(-c2ccc(Cl)s2)n1 [Example 269]: 70%
CCC(C)n1cc(-c2ccncc2)c(-c2ccc(Br)s2)n1 (stereo not drawn) [Example 354]: 70%
CCC(=O)Nc1cc(-c2cn(C)nc2-c2ccc(Cl)s2)ccn1 [Example 278]: 80%
CC(C)Cn1nc(C2CC2)c(-c2ccncc2)c1-c1ccc(Cl)s1 [Example 413]: 70%

Consider the molecule CCC(=O)Nc1cc(-c2c(-c3ccc(Cl)s3)nn(C(C)C)c2C)ccn1 [Example 168] and give its measured efficacy. 90%

Param item: CCC(C)n1cc(-c2ccnc(NC(C)=O)c2)c(-c2ccc(Cl)s2)n1 (stereo not drawn) [Example 110] 95%

Param item: CC#Cc1c(-c2ccncc2)c(-c2ccc(Cl)s2)nn1C(C)C [Example 412] 70%

Param item: COc1ccc(Cn2cc(-c3ccncc3)c(-c3ccc(Cl)s3)n2)cc1 [Example 104] 80%

Param item: FCCn1cc(-c2ccncc2)c(-c2ccc(Br)s2)n1 [Example 388] 80%
